Assay: AUC in mouse at 5 mg/kg, po
Assay type: ADME, organism-based, Plasma
Parameters: dose 5 mg/kg, route oral
Details: plasma
Measured AUC of individual entries
Report the figure in µM·h without appending any unit label.

Take a look at these entries with their results.
| Chemical string | Unit annotation | AUC |
| --- | --- | --- |
| C[C@H]1COCCN1c1nc(-c2ccc(Nc3cccc(=O)[nH]3)cc2)nc2c1COC2(C)C | µM·h | 0.31 |
| CCNC(=O)Nc1ccc(-c2nc(N3CCOC[C@@H]3C)c3c(n2)[C@](C)(CCN(C)C)OC3)cc1 | µM·h | 0.14 |
| CCNC(=O)Nc1ccc(-c2nc(N3CCOC[C@@H]3C)c3c(n2)C(C)(C)OC3)cc1 | µM·h | 6.1 |

Consider the record given below.
The value of AUC measured for the molecule C[C@H]1COCCN1c1nc(-c2ccc(NC(=O)NCCO)cc2)nc2c1COC2(C)C turned out to be 0.81

* * *

Tested on: Mus musculus
Experiment: Oral bioavailability in mouse at 5 mg/kg
Format: ADME, organism-based
Conditions: in vivo
Endpoint name: F (%)
Report the figure in % without appending any unit label.

Take a look at these entries with their results.
| Chemical string | F (%) |
| --- | --- |
| CCNC(=O)Nc1ccc(-c2nc(N3CCOC[C@@H]3C)c3c(n2)[C@](C)(CCO)OC3)cc1 | 110 |
| CCNC(=O)Nc1ccc(-c2nc(N3C[C@H]4CC[C@@H](C3)O4)c3c(n2)[C@](C)(CCO)OC3)cc1 | 50 |
| CCNC(=O)Nc1ccc(-c2nc(N3CCOC[C@@H]3C)c3c(n2)[C@](C)(CC(C)(C)O)OC3)cc1 | 53 |

Consider the record given below.
The value of F measured for the molecule CCNC(=O)Nc1ccc(-c2nc(N3CCOCC3)c3c(n2)[C@](C)(CCO)OC3)cc1 turned out to be 56

* * *

Test: Volume of distribution at steady state in mouse at 1 mg/kg, iv
Format: ADME, organism-based
Set-up: dose 1 mg/kg, route intravenous
Conditions: in vivo, read-out: Vdss
Measured Vd of individual entries
Report the figure in L/kg without appending any unit label.

Take a look at these entries with their results.
| Chemical string | Vd, L/kg |
| --- | --- |
| CCNC(=O)Nc1ccc(-c2nc(N3CCOCC3)c3c(n2)C(C)(C)OC3=O)cc1 | 0.57 |
| CCNC(=O)Nc1ccc(-c2nc(N3CCOC[C@@H]3C)c3c(n2)[C@](C)(CCO)OC3)cc1 | 1.5 |

Consider the record given below.
The value of Vd measured for the compound CCNC(=O)Nc1ccc(-c2nc(N3C[C@H]4CC[C@@H](C3)O4)c3c(n2)[C@](C)(CCO)OC3)cc1 turned out to be 2

* * *

Measured log10 half-life of individual entries
Assay: Half life in mouse at 1 mg/kg, iv
Format: ADME, organism-based
Design: dose 1 mg/kg, route intravenous
Settings: in vivo
A value of 2 here means half-life of 100 in min, since values are log10.

| Chemical string | Reported result |
| --- | --- |
| C[C@H]1COCCN1c1nc(-c2ccc(Nc3cccc(=O)[nH]3)cc2)nc2c1COC2(C)C | 2.12 |

The value of log10 half-life measured for the molecule CCNC(=O)Nc1ccc(-c2nc(N3CCOCC3)c3c(n2)[C@](C)(CC(C)(C)O)OC3)cc1 turned out to be 1.21

The value of log10 half-life measured for the molecule CCNC(=O)Nc1ccc(-c2nc(N3CCOC[C@@H]3C)c3c(n2)[C@@](C)(CCO)OC3)cc1 turned out to be 1.31

The value of log10 half-life measured for the molecule CCNC(=O)Nc1ccc(-c2nc(N3CCOC[C@@H]3C)c3c(n2)[C@@](C)(CC(C)(C)O)OC3)cc1 turned out to be 1.89

The value of log10 half-life measured for the molecule CCNC(=O)Nc1ccc(-c2nc(N3CCOC[C@@H]3C)c3c(n2)[C@](C)(CCN(C)C)OC3)cc1 turned out to be 1.53

The value of log10 half-life measured for the molecule CCNC(=O)Nc1ccc(-c2nc(N3C[C@H]4CC[C@@H](C3)O4)c3c(n2)[C@](C)(CCO)OC3)cc1 turned out to be 1.66

The value of log10 half-life measured for the molecule C[C@H]1COCCN1c1nc(-c2ccc(NC(=O)NCCO)cc2)nc2c1COC2(C)C turned out to be 1.40

The value of log10 half-life measured for the molecule CCNC(=O)Nc1ccc(-c2nc(N3CCOC[C@@H]3C)c3c(n2)C(C)(C)OC3)cc1 turned out to be 1.38

The value of log10 half-life measured for the molecule CCNC(=O)Nc1ccc(-c2nc(N3CCOCC3)c3c(n2)C(C)(C)OC3=O)cc1 turned out to be 1.10
